B1: RAD51 (parent)
chain: RFLRMLLRLADEFGVAVVITNQVV

# Variants of: B1
# assay_details: protein stability index of a GFP-peptide fusion (GPS, HEK-293T) (PSI 1-6); higher = more stable;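 further: lentivirally expressed fusions sorted by FACS into six bins by GFP to DsRed ratio, PSI derived from sequencing read proportions per bin multiplied by bin number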
# condition_label: c terminus: a fixed tail appended
Grouping key: protein stability index. Bins: class 1 = under 2, class 2 = from 2 up to 3, class 3 = 3 and over

{"variant_annotation": "D11S", "category": "class 2"}
{"variant_annotation": "R1G", "category": "class 2"}

[in] // return the class label for E12Q
[out] class 3

[in] // return the class label for V24D
[out] class 2
